Recorded IC50 by entry
- TESTED_ON: C72 murine anti-DNA antibody
- TEST_SUMMARY: competitive inhibition ELISA: C72 preincubated with peptide, binding to coated 5100 (R38)
Just the number please, in µg/mL, no unit attached.

BINDER	READOUT_NAME	VALUE_MEASURED
KEGYKVRLDLNITLEF [5101 peptide, Res. 1-16 of 5100]	IC50	5
KEGYKVRLDLNITLAFRTTSK [5110 peptide, Ala subst. of 5100 a.a. 15]	IC50	0.7

[Q] Consider the binder VRLDLNITLEFR [5102 peptide, Res. 6-17 of 5100] . State its measured IC50.
[A] 30

[Q] Consider the binder KEGYKVRLDLNITLEFRTTSK [R38 peptide (5100), mouse laminin alpha chain residues 2890-2910] . State its measured IC50.
[A] 10

[Q] Consider the binder KEGYKVRLDLNITLEFETTSK [5107 peptide, charge subst. to neg. at 5100 a.a. 17] . State its measured IC50.
[A] 85

[Q] Consider the binder KEGYKVELDLNITLEFRTTSK [5106 peptide, charge subst. to neg. at 5100 a.a. 7] . State its measured IC50.
[A] 2.5

[Q] Consider the binder KEGYKVRLALNITLEFRTTSK [5109 peptide, Ala subst. of 5100 a.a. 9] . State its measured IC50.
[A] 0.7

[Q] Consider the binder KEGYKVRLDLNTTLEFRTTSK [5200 peptide, mouse R38 analog] . State its measured IC50.
[A] 10

[Q] Consider the binder KAGYKVRLALNITLAFRTTSK [5108 peptide, Ala subst. of 5100 at all negative a.a.] . State its measured IC50.
[A] 2
